Listing of entries alongside the reported Dmax.
- test-target: BRAF G466V (Homo sapiens, UniProt P15056, G466V)
- Construct: expressed in transfected cells
- Sequence (P15056 whole entry G466V): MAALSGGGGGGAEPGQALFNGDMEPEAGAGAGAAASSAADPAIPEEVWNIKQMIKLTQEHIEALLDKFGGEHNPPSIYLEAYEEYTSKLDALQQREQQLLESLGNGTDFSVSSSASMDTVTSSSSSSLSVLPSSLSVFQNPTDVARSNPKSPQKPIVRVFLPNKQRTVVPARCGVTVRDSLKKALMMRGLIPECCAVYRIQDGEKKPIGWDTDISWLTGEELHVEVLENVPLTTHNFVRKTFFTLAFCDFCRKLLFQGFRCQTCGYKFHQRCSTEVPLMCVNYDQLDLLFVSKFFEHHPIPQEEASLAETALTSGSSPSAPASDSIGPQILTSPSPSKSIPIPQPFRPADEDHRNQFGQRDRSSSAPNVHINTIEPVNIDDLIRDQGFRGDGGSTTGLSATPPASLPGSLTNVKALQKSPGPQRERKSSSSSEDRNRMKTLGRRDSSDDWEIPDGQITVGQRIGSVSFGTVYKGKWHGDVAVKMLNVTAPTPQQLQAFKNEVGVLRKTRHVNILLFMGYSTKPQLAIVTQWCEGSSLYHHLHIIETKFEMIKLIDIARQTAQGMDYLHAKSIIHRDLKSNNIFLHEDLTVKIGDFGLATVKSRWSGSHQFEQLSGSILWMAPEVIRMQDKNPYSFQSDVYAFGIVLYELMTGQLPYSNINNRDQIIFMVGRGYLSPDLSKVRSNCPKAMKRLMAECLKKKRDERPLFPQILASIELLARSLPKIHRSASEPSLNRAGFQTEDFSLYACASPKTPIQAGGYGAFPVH
- experiment: Cellular assay of target protein degradation, T-Rex 293 cells stably transfected with HA-BRAF G466V (HA immunofluorescence, high content imaging)
- Format: cell-based
- assay-conditions: maximum degradation observed, T-Rex 293 HA-BRAF G466V

Please look up its Dmax: O=C1CC[C@H](NC(=O)c2ccc(C3CCN(CC4CCN(c5ccc(-c6cnc7[nH]cc(C(=O)c8c(F)ccc(NS(=O)(=O)N9CC[C@@H](F)C9)c8F)c7c6)cc5)CC4)CC3)cc2F)C(=O)N1 [Compound 33]
35 to 70%

Which Dmax is reported for this compound? CCCS(=O)(=O)Nc1ccc(F)c(C(=O)c2c[nH]c3ncc(-c4ccc(N5CCN(CC6CCN(c7ccc8c(c7)CN(C7CCC(=O)NC7=O)C8=O)CC6)CC5)cc4)cc23)c1F (stereo not drawn) [Compound 244]
> 70%

Consider the compound O=C1CCC(N2Cc3cc(C4CCN(CC5CCN(c6ccc(-c7cnc8[nH]cc(C(=O)c9c(F)ccc(NS(=O)(=O)N%10CC[C@@H](F)C%10)c9F)c8c7)cc6F)CC5)CC4)ccc3C2=O)C(=O)N1 (stereo partly drawn) [Compound 36] and give its measured Dmax.
35 to 70%

====

- test-target: BRAF V600E (Homo sapiens, UniProt P15056, V600E)
- Construct: expressed in transfected cells
- Sequence (P15056 whole entry V600E): as the sequence (P15056 whole entry G466V) above, with V466G, V600E counted along it
- experiment: Cellular assay of target protein degradation, T-Rex 293 cells stably transfected with HA-BRAF_V600E (HA immunofluorescence, high content imaging)
- Format: cell-based
- assay-conditions: maximum degradation observed, T-Rex 293 HA-BRAF V600E
endpoint: Dmax

Example results:
{"compound": "COc1cc(N2CC3(CN(CC4CCN(c5ccc(-c6cnc7[nH]cc(C(=O)c8c(F)ccc(NS(=O)(=O)N9CC[C@@H](F)C9)c8F)c7c6)cc5)CC4)C3)C2)cc2c1C(=O)N([C@@H]1CCC(=O)NC1=O)C2", "result": "< 35%"}
{"compound": "COc1ccc(NS(=O)(=O)N2CC[C@@H](F)C2)c(F)c1C(=O)c1c[nH]c2ncc(-c3ccc(N4CCC(CN5CCC(c6ccc7c(c6)CN(C6CCC(=O)NC6=O)C7=O)CC5)CC4)cc3)cc12 (stereo partly drawn)", "result": "35 to 70%"}

Given the entry "O=C1CC[C@H](NC(=O)c2ccc(N3CCC(CN4CC5(C4)CN(c4ccc(-c6cnc7[nH]cc(C(=O)c8c(F)ccc(NS(=O)(=O)N9CC[C@@H](F)C9)c8F)c7c6)cc4)C5)CC3)cn2)C(=O)N1" , report its measured Dmax.
35 to 70%

====

- test-target: BRAF V600E (Homo sapiens, UniProt P15056, V600E)
- Construct: expressed in transfected cells
- experiment: Cellular assay of target protein degradation, T-Rex 293 cells stably transfected with HA-BRAF_V600E (HA immunofluorescence, high content imaging)
- Format: cell-based
- assay-conditions: maximum degradation observed, T-Rex 293 HA-BRAF V600E
endpoint: Dmax

Worked cases, answers included:
{"compound": "O=C1CCC(N2Cc3cc(N4CCC(CN5CC[C@H]6[C@@H](C5)CN6c5ccc(-c6cnc7[nH]cc(C(=O)c8c(F)ccc(NS(=O)(=O)N9CC[C@@H](F)C9)c8F)c7c6)cc5)CC4)ccc3C2=O)C(=O)N1 (some centres unmarked)", "Dmax": "35 to 70%"}
{"compound": "O=C1CC[C@H](NC(=O)c2ccc(N3CCC(CN4CCN(c5ccc(-c6cnc7[nH]cc(C(=O)c8c(F)ccc(NS(=O)(=O)N9CC[C@@H](F)C9)c8F)c7c6)cc5)CC4)CC3)cc2F)C(=O)N1", "Dmax": "35 to 70%"}

What measured Dmax goes with "C[C@H](c1ncc(-c2cnc3[nH]cc(C(=O)c4c(F)ccc(NS(=O)(=O)N5CC[C@@H](F)C5)c4F)c3c2)cn1)N1CCN(CC2CCN(c3ccc4c(c3)CN([C@H]3CCC(=O)NC3=O)C4=O)CC2)CC1" ?
35 to 70%

Can you look up the measured Dmax of O=C1CCC(NC(=O)c2ccc(N3CCN(CCN4CCN(c5ccc(-c6cnc7[nH]cc(C(=O)c8c(F)ccc(NS(=O)(=O)N9CC[C@@H](F)C9)c8F)c7c6)cc5)CC4)CC3)cc2F)C(=O)N1 (some centres unmarked) for me?
< 35%

Item COc1cc(C2CCN(CC3CCN(c4ncc(-c5cnc6[nH]cc(C(=O)c7c(F)ccc(NS(=O)(=O)N8CC[C@@H](F)C8)c7F)c6c5)cn4)CC3)CC2)cc2c1C(=O)N(C1CCC(=O)NC1=O)C2 (some centres unmarked) has what recorded Dmax?
35 to 70%

Ref: patent US12180193B2
